Assay: soluble on expression in E. coli; label from the status in PepcDB or PDB records
measurement-name: soluble on expression in E. coli

Use the examples below as a reference point.
{"columns": ["biosequence", "result"],
 "data": [
  ["MGSDKIHHHHHHMAYRKQLTRLKAPYLKRILLDPGRVEDWEKYPWNLPLFRGREFELEFTAPITIIVGENGTGKSTLLEAIGALAGYDEAGGGKGYMPVDHSRAIDKSGAALADNFRCHWLPKVTAGWFFRAESFYSVARYLDEAARESGATPPDFLSWSHGEGFIRFFEERCRRQGIYILDEPESALSPSRQIELLKMLRRMDQSGTAQVIMATHSPLLMACPGARLFRISRFGLEPADFRDTDHFRMLRDFSNDPDGFLAEALYEDEA", "not soluble"],
  ["SNAMQVITSVKEAKQIVKDWKSHQLSIGYVPTMGFLHDGHLSLVKHAKTQDKVIVSIFVNPMQFGPNEDFSSYPRDLERDIKMCQDNGVDMVFIPDATQMYLKNFSTYVDMNTITDKLCGAKRPGHFRGVCTVLTKFFNILNPDIVYMGQKDAQQCVVVRHMVDDLNFDLKIQICPIIREEDGLAKSSRNVYLSKEERKASLAISQSIFLAEKLVREGEKNTSKIIQAMKDILEKEKLIKIDYIELVDFNTMENIENITDNVLGAVAAFVGKTRLIDNFLVQGLK", "soluble"],
  ["MSLSPLSKLDKIAVSGNKQLTENEVRKESGLEIGEFVIGISNGKTEDTLKKNTLIKDATVSKEGINDVQINITEFKTIGYQQQDGKYYDVLESGIMLTDQPRQFPIGNDLLFQNFKNGKTLEKMVAQINKLPKDVVSSISEVIYSPTKTDKNHIKLYMNDGNQVSADISTFAEKMQHYPAIVAQLAKGQKGVIDIEVGSYFQSYYQQNAEKKAAEEAAKEKKETNEGHHHHHH", "soluble"],
  ["MQRYLWQQADGKRHVYDTARHRVQAGRPFTALCGETVTPQTERGDLTAGLWFDGECPVCTIALAKALGWPVREISDLAHRFDWSPALITRLAEVLHCSFGEVVELTGARMVDA", "not soluble"],
  ["MMYIYTYTDPFGKRRYTYSKDLVKLREKEQKLLKDQLDGLDVYAAGNANLNFVFDRYISTKTELRRTTYTNYMYMYDHYVRDSFGKKKIGEIKYSDVLYFYYHLINERKLQVNTLETIHTVLHPTFQLAVRDDIIRNNPSHGVMSEIKKKPGRNHGVRHALTVEQQRAFMNYTSNSPVFNHWAPLFTVLLGTGCRIGEIIGIRWEDIDLEKRLININHSVTYYPRRAETTKCEFAVSLPKTEAGIRTVPMMEPVYNAFMEEYEYQKENGFSTVTLDGMEGFIFTNRFGNLHNPQAVNRTIKRI", "not soluble"]
]}

The record that follows has no soluble on expression in E. coli shown yet.
Prompt: // lookup soluble on expression in E. coli for MNVKSRQQENAEATREALLESALSAFIEHGYGGVSIDAIAREARVTKGAFYHHFGSKQELLAECYERQVRTIAEDLDRVPAHVDKWAEAAALAEAFIDSVMARGKRQLSLQEVITVVGWERWKRIDSRHTLRYVGRLVDELAASGELKDYRRETLVGQLYGFLTQAAMSLRDARNKRQAANEVKAIIRDFLYSLRRG
Response: not soluble

* * *

Assay: soluble on expression in E. coli; label from the status in PepcDB or PDB records

{"columns": ["biosequence", "soluble on expression in E. coli"],
 "data": [
  ["MLSRRGKMKRIKVLRNGPYLVEGSVPLYEEVIVTDEEGHTREFVERRQFPLKERYVLCRCGESGNKPYCDGTHIRTGFDGTETASLEPYIERARVFRAGDLELTDVPELCDHSRFCLRAGGIRELLRKGDRESIQIAIEEAMICPSGRLVLWDRKTGKPYERDYEKSIVVIHDKQKRCEGPLWVRGGIPIESADGREYEVRNRVTLCRCGLSENKPFCDGSHWMTAEEKLEFKRKWGIELEHHHHHH", "not soluble"],
  ["MPQQTVEVKEVDVLIRGIWRKKKFTDIQKGQTFKIEENGRTKKYIARTDPYWDDMFETYIIDLLDKNKIRRNKLEHHHHHH", "not soluble"],
  ["MSSKWITSLFKSVVLTAALVTPFAASAFTEGTDYMVLEKPIPNADKTLIKVFSYACPFCYKYDKAVTGPVSDKVADLVTFTPFHLETKGEYGKQASEVFAVLIAKDKAAGISLFDAKSQFKKAKFAWYAAYHDKKERWSDGKDPAAFIKTGLDAAGMSQADFEAALKDPAVQETLEKWKAAYDVAKIQGVPAYVVNGKYLIYTKNIKSIDSMAELVRELATKK", "not soluble"]
]}

* * *

Experiment: soluble on expression in E. coli; label from the status in PepcDB or PDB records
measurement-name: soluble on expression in E. coli

Use the examples below as a reference point.
{"columns": ["biosequence", "measurement-name", "result"],
 "data": [
  ["MIEKDVVQILKAVSEFYPGRFQPDDLKGTVKAWHRVLAEYELEEIMNNLTDYAKVNKFPPTVSDLLKAQSEQRDRFIPSYEETQRILKEQAEAEEAARNDPDLQAAQEENMRKIREMLGINRGGAR", "soluble on expression in E. coli", "soluble"],
  ["MSDHPGPGAVTPELFGVGGDWLAVTAGESGASVFRAADATRYAKCVPAADAAGLEAERDRIAWLSGQGVPGPRVLDWYAGDAGACLVTRAVPGVPADRVGADDLRTAWGAVADAVRRLHEVPVASCPFRRGLDSVVDAARDVVARGAVHPEFLPVEQRLVPPAELLARLTGELARRRDQEAADTVVCHGDLCLPNIVLHPETLEVSGFIDLGRLGAADRHADLALLLANARETWVDEERARFADAAFAERYGIAPDPERLRFYLHLDPLTWG", "soluble on expression in E. coli", "not soluble"],
  ["MSLRSDLINALYDENQKYDVCGIISAEGKIYPLGSDTKVLSTIFELFSRPIINKIAEKHGYIVEEPKQQNHYPDFTLYKPSEPNKKIAIDIKTTYTNKENEKIKFTLGGYTSFIRNNTKNIVYPFDQYIAHWIIGYVYTRVATRKSSLKTYNINELNEIPKPYKGVKVFLQDKWVIAGDLAGSGNTTNIGSIHAHYKDFVEGKGIFDSEDEFLDYWRNYERTSQLRNDKYNNISEYRNWIYRGRK", "soluble on expression in E. coli", "soluble"],
  ["MFKQFIEDAKSIAERDPAATSVLEVIFLYSGFHAVCLHRIAHWFYKRNMRFIARFISQLNRFLTGVEIHPGAKIGKGLFIDHGMGVVIGETAEVGDNCTIYHNVTLGGTGKDKGKRHPTIGNNVLISTGAKVLGPFKVGDNSRIGANAVVLNEVEPNTTVVGVPGRAVKRGNQKIVPSIELDQIHIPDPVAQELCRIKQRLESLEKELMEMRRASQGSNVQEPVPQEKSCEEECKLEMGKEIADNETL", "soluble on expression in E. coli", "not soluble"],
  ["MGSDKIHHHHHHMHACGDAVLFLPPNPFLDLRPVPHTSWARLPPMIRLAVLSDLHANLEATLAVHADVQRRGIQEIWVLGDLVGKGPRPREVVEWTQAHASRVIQGNWDARVAGATNRPQDLWPRSKLTPAQLAYLAGLPYGIEEQFSGAWWRFVHASSKGLFHRLYPHSSLAEQLEAYMPNPQFGLKVHADALVYADVHETLMLDVEGRPLINTGSVGNPLDSTLPSYLILEFDPHSPAHSATFVRLTYNRDAEIAAAEASGMPFTREYVAELLTGAYQKRRARTGE", "soluble on expression in E. coli", "not soluble"],
  ["SNAMSELSYRRILLKLSGEALMGDGDYGIDPKVINRLAHEVIEAQQAGAQVALVIGGGNIFRGAGLAASGMDRVTGDHMGMLATVINALAMQDALEKLGAKVRVMSAIKINDVCEDFIRRRAIRHLEKGRIAIFAAGTGNPFFTTDSGAALRAIEIGADLLLKATKVDGVYDKDPKKHSDAVRYDSLTYDEVIMQGLEVMDTAAFALARDSDLPLRIFGMSEPGVLLRILHGAQIGTLVQGRS", "soluble on expression in E. coli", "soluble"],
  ["SLIMRYADSGLCGTVSQNMADARTRAESTDLSETSPDE", "soluble on expression in E. coli", "soluble"],
  ["MKELHTSELVEVSGGKFHIFAQGGGNLGKKDMVAVGKIGASYSPNNSGVEFSVSKQFGYVQGLGVQFSKPTFGISKKW", "soluble on expression in E. coli", "not soluble"],
  ["MSLNIKKAAELSGIKTDNIRYYERIGLIPKITRTESGIRNFTEANIRTLKFVKHMRDAGVQVEPLTRYMALVNEGNPETKEERIEILKNQVEQLRTEIIEKQSALDYLTFKIENYDEVMLPNEINLNQSSKETIKEGHHHHHH", "soluble on expression in E. coli", "soluble"],
  ["MGSDKIHHHHHHMLRIFQGRPAVTIAAVLVAASVAGCAGKAKKPTLVYEERPVELLYSTGADRLDRGNWNEAVDYFREVERQHPYSEWSRRSILMTGYAHYMGNQYAEAIGDADRFISLYPGNPSAQYAFYLKAICYFEQIVDVNRDQAATEQALAALRDVVQRYPNTEYATDARLKIDMVNDQLAGKEMAIGRWYLKNGQTLAAIGRFKAVIERHQTTSHTPEALFRLVEAYLTIGLNEEAKRNGAVLGYNFPGDRWYVDAYRLLNDNGLRPAVEPLKAGAKRNALERILSKDKEATLAPPGERKAKKGLLGPLGM", "soluble on expression in E. coli", "not soluble"]
]}

Prompt: // lookup soluble on expression in E. coli for MGSDKIHHHHHHMDTVNYTHHLSTFVDVVRAGSFSAVARRQGMKPSSIARKIDMLEDYFGAALFVRSTRALMLTDVGEVLVARAEVILNELNAMRVEIKSIKDNLDGPLRISCLPTFGKLHILPWLPKLRENFPRMTVELDLTERIANPSIERLDAVLRIGPLNDSGLYAKTIGVQRWLVCASPAYVGRSGKPAGWSQLAGHAIVDKLHDPAGICWHGALDPQQYSAMSIGFRCNDFDGLRQAALGGLGLAYLPDWVALPDITAGRLVKLFDDSKRGDEPISLLRASSKPSARLQIFHDALLDHLRKFSETGYGVE
Response: not soluble

Prompt: // lookup soluble on expression in E. coli for SVKRLFKVRSDLDFAEQLWCKMSSSVISYQDLVKCFTLIIQSLQRGDIQPWLHSGSNSLLSKLIHQSYHGTMDTVSLSGTIPVQMLLEIGLDKLKKDYISFFIGQELASLNHLEYFIAPSVDIQEQVYRVQKLHHILEILVSCMPFIKSQHELLFSLTQICIKYYKQNPLDEQHIFQLPVRPTAVKNLYQSEKPQKWRVEIYSGQKKIKTVWQLSDSSPIDHLNFHKPDFSELTLNGSLEERIFFTNMVTCSQVHFK
Response: soluble

Prompt: // lookup soluble on expression in E. coli for GKRDNLEIDRTGLALTAFYARNLAVPERRRVEHPQVLRGKQLFHEAGCPACHVPKFVTHRLKDQPEQSFQLIWPYTDLLLHDMGEGLADGRPEGRATGREWRTAPLWGIGLTEQVSGHANFLHDGRARSILEAVLWHGGEAEAARARVMALPAPDRAALVAFVEDL
Response: not soluble
